B1: TRIM35 (parent)
chain: PTCPVCKDRASPADLRTNHTLNNL

- Variants of: B1
- assayInfo: protein stability index of a GFP-peptide fusion (GPS, HEK-293T) (PSI 1-6); higher = more stable;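 note: lentivirally expressed fusions sorted by FACS into six bins by GFP to DsRed ratio, PSI derived from sequencing read proportions per bin multiplied by bin number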
- conditionDetails: c terminus: a fixed tail appended
protein stability index values by entry
measurementLabel: protein stability index

- residueSequence: "PTCPVCKGRASPADLRTNHTLNNL"
  measurementLabel: "protein stability index"
  recordedMeasurement: 3.11
- residueSequence: "PTCPVCLDRASPADLRTNHTLNNL"
  measurementLabel: "protein stability index"
  recordedMeasurement: 2.91
- residueSequence: "PTCPVCKDRASPARLRTNHTLNNL"
  measurementLabel: "protein stability index"
  recordedMeasurement: 2.94
- residueSequence: "PTCPVCKDRASPADLRTNHCLNNL"
  measurementLabel: "protein stability index"
  recordedMeasurement: 3
- residueSequence: "PTCPVCKDRASPADLRTNHTLSNL"
  measurementLabel: "protein stability index"
  recordedMeasurement: 2.99
- residueSequence: "PTCPVCKKRASPADLRTNHTLNNL"
  measurementLabel: "protein stability index"
  recordedMeasurement: 2.31
- residueSequence: "PTCPMCKDRASPADLRTNHTLNNL"
  measurementLabel: "protein stability index"
  recordedMeasurement: 2.76
- residueSequence: "PTCGVCKDRASPADLRTNHTLNNL"
  measurementLabel: "protein stability index"
  recordedMeasurement: 2.71
- residueSequence: "PLCPVCKDRASPADLRTNHTLNNL"
  measurementLabel: "protein stability index"
  recordedMeasurement: 2.79
- residueSequence: "PTCPDCKDRASPADLRTNHTLNNL"
  measurementLabel: "protein stability index"
  recordedMeasurement: 4.16
- residueSequence: "PTCPVCKMRASPADLRTNHTLNNL"
  measurementLabel: "protein stability index"
  recordedMeasurement: 1.92
- residueSequence: "PTCPVCKDRASPADLRTNHGLNNL"
  measurementLabel: "protein stability index"
  recordedMeasurement: 2.76
- residueSequence: "PTSPVCKDRASPADLRTNHTLNNL"
  measurementLabel: "protein stability index"
  recordedMeasurement: 4.55
- residueSequence: "PTCPVCKDRASPADTRTNHTLNNL"
  measurementLabel: "protein stability index"
  recordedMeasurement: 3.57
- residueSequence: "PTCPVCKWRASPADLRTNHTLNNL"
  measurementLabel: "protein stability index"
  recordedMeasurement: 2.32
- residueSequence: "PTCPVCKDRASPADLRTNHTKNNL"
  measurementLabel: "protein stability index"
  recordedMeasurement: 3.13
- residueSequence: "PTCPVCKDRASPADLRHNHTLNNL"
  measurementLabel: "protein stability index"
  recordedMeasurement: 3.66
- residueSequence: "PTCPVCKDRASPADWRTNHTLNNL"
  measurementLabel: "protein stability index"
  recordedMeasurement: 2.13
- residueSequence: "PTCPVCKDRASVADLRTNHTLNNL"
  measurementLabel: "protein stability index"
  recordedMeasurement: 2.85
